- Tested on: Staphylococcus aureus
- Assay explanation: Antibacterial activity at Staphylococcus aureus
- Assay type: functional

>  <Record smiles>
C[C@H](CCCO)[C@H]1CC[C@H]2[C@@H]3[C@H](O)C[C@@H]4C[C@@H](NC(=O)CCNC(=O)CCNC(=O)CCNC(=O)CCN)CC[C@]4(C)[C@H]3C[C@H](O)[C@]12C

>  <MIC>
> 128 µg/mL

$$$$
>  <Record smiles>
C[C@H](CCCO)[C@H]1CC[C@H]2[C@@H]3[C@H](O)C[C@@H]4C[C@@H](NC(=O)CCNC(=O)CCNC(=O)CCNC(=O)CCNC(=O)OC(C)(C)C)CC[C@]4(C)[C@H]3C[C@H](O)[C@]12C

>  <MIC>
> 128 µg/mL

$$$$
>  <Record smiles>
C[C@H](CCC(=O)O)[C@H]1CC[C@H]2[C@@H]3[C@H](O)C[C@@H]4C[C@@H](NC(=O)CCNC(=O)CCNC(=O)CCNC(=O)CCN)CC[C@]4(C)[C@H]3C[C@H](O)[C@]12C

>  <MIC>
> 128 µg/mL

$$$$
>  <Record smiles>
CN(C)[C@@H]1C(O)=C(C(N)=O)C(=O)[C@@]2(O)C(O)=C3C(=O)c4c(O)cccc4[C@@](C)(O)[C@H]3C[C@@H]12

>  <MIC>
16 µg/mL

$$$$
>  <Record smiles>
COC(=O)CC[C@@H](C)[C@H]1CC[C@H]2[C@@H]3[C@H](O)C[C@@H]4C[C@@H](NC(=O)CCNC(=O)CCNC(=O)CCNC(=O)CCNC(=O)OC(C)(C)C)CC[C@]4(C)[C@H]3C[C@H](O)[C@]12C

>  <MIC>
> 128 µg/mL

$$$$

====

- Test system: HEK293
- Assay explanation: Antiproliferative activity against HEK293 cells at upto 80 uM by MTT assay
- Assay type: cell-based
- Assay conditions: human
Experimental readout: Activity

>  <Molecule>
CC(CCC(=O)O)C1CCC2C3C(O)CC4CC(NC(=O)CCNC(=O)CCNC(=O)CCNC(=O)CCNC(=O)OC(C)(C)C)CCC4(C)C3CC(O)C12C (stereo not given)

>  <Experimental readout>
Activity

>  <Result>
Non-toxic

$$$$
>  <Molecule>
C[C@H](CCCO)[C@H]1CC[C@H]2[C@@H]3[C@H](O)C[C@@H]4C[C@@H](NC(=O)CCNC(=O)CCNC(=O)CCNC(=O)CCNC(=O)OC(C)(C)C)CC[C@]4(C)[C@H]3C[C@H](O)[C@]12C

>  <Experimental readout>
Activity

>  <Result>
Non-toxic

$$$$
>  <Molecule>
CC(=O)OCCC[C@@H](C)[C@H]1CC[C@H]2[C@@H]3[C@H](OC(C)=O)C[C@@H]4C[C@@H](NC(=O)CCNC(=O)CCNC(=O)CCNC(=O)CCNC(=O)OC(C)(C)C)CC[C@]4(C)[C@H]3C[C@H](O)[C@]12C

>  <Experimental readout>
Activity

>  <Result>
Non-toxic

$$$$
>  <Molecule>
COC(=O)CC[C@@H](C)[C@H]1CC[C@H]2[C@@H]3[C@H](O)C[C@@H]4C[C@@H](NC(=O)CCNC(=O)CCNC(=O)CCNC(=O)CCN)CC[C@]4(C)[C@H]3C[C@H](O)[C@]12C

>  <Experimental readout>
Activity

>  <Result>
Non-toxic

$$$$
>  <Molecule>
C[C@H](CCCO)[C@H]1CC[C@H]2[C@@H]3[C@H](O)C[C@@H]4C[C@@H](NC(=O)CCNC(=O)CCNC(=O)CCNC(=O)CCN)CC[C@]4(C)[C@H]3C[C@H](O)[C@]12C

>  <Experimental readout>
Activity

>  <Result>
Non-toxic

$$$$
